FYI, the data here is from patent EP4755881A1.

# maps each entry to its AUC(0-t)
# measurementDescription: Pharmacokinetic study in rats (oral gavage and tail vein injection, plasma LC-MS/MS)
# Assay type: in vivo
# assayConditions: male, rat, SD rats, Iv, 1 mg/kg
propertyName: AUC(0-t)

* CCOC1CC(C#Cc2ccc(-c3nnn(C)c3NC(=O)O[C@H](C)C(F)(F)CC)nc2C)(CC(=O)O)C1 (stereo partly shown) [compound 429] | 3000 to 5000 ng·h/mL
* Cc1nc(-c2nnn(C)c2CNc2nccc(C3CCC3)n2)ccc1C#CC1(CC(=O)O)CC1 [compound 214] | 3000 to 5000 ng·h/mL
* CCC[C@@H](C)OC(=O)Nc1c(-c2ccc(C#C[C@@H]3C[C@H]3C(=O)O)c(C)n2)nnn1C (mixture of isomers) [compound 224] | 5000 to 10000 ng·h/mL
* CCC(F)(F)[C@@H](C)OC(=O)Nc1c(-c2ccc(C#C[C@@H]3CC[C@H]3C(=O)O)c(C)n2)nnn1C (mixture of isomers) [212-B] | 5000 to 10000 ng·h/mL
* Cc1nc(-c2nnn(C)c2CNc2nccc(C3CC(F)(F)C3)n2)ccc1C#CC1(CC(=O)O)CC1 [compound 254] | 3000 to 5000 ng·h/mL
* CCC(F)(F)[C@@H](C)OC(=O)Nc1c(C)noc1-c1ccc(C#CC2(CC(=O)O)CC(OC)C2)c(C(F)(F)F)n1 (stereo partly shown) [compound 506] | 10000 to 20000 ng·h/mL
* Cc1nc(-c2nnn(C)c2NC(=O)OC(C)c2cc(F)cnc2Cl)ccc1C#CC1(CC(=O)O)CC1 (single isomer, unassigned) [023-A] | 3000 to 5000 ng·h/mL
* C[C@H](CC(C)(F)F)OC(=O)Nc1c(-c2ccc(C#CC3(CC(=O)O)CC3)c(Cl)n2)nnn1C [compound 210] | 5000 to 10000 ng·h/mL
* Cc1nc(-c2nnn(C)c2NC(=O)O[C@H](C)c2ccccc2)ccc1C#C[C@@H]1CC[C@H]1C(=O)O [compound 309] | 3000 to 5000 ng·h/mL
* CCCN(C)C(=O)OCc1c(-c2ccc(O[C@H]3CCC[C@H](C(=O)O)C3)c(C)n2)nnn1C [Control compound 1, reference compound] | 811 ng·h/mL
* CC(OC(=O)Nc1c(-c2ccc(C#CC3(CC(=O)O)CC3)c(F)n2)nnn1C)C12CC(C1)C2 (stereo not shown) [237-A] | 5000 to 10000 ng·h/mL
* Cc1nc(-c2nnn(C)c2NC(=O)OC(C)C23CC(F)(C2)C3)ccc1C#CC1(CC(=O)O)CC1 (stereo not shown) [compound 285] | 5000 to 10000 ng·h/mL
* CCC[C@@H](C)OC(=O)Nc1c(-c2ccc(C#CC3(CC(=O)O)CC(OC)C3)c(C)n2)nnn1C (stereo partly shown) [compound 278] | 5000 to 10000 ng·h/mL
* Cc1nc(-c2nnn(C)c2NC(=O)O[C@H](C)c2ccccc2)ccc1C#C[C@@H]1C[C@H]1C(=O)O [compound 295] | 5000 to 10000 ng·h/mL
* CCCN(C)C(=O)OCc1c(-c2ccc(C#C[C@@H]3CCC[C@H]3C(=O)O)c(C)n2)nnn1C [compound 355] | 1200 to 3000 ng·h/mL
* Cc1nc(-c2nnn(C)c2COc2nccc(C3CC(F)(F)C3)n2)ccc1C#CC1(CC(=O)O)CC1 [compound 216] | 1200 to 3000 ng·h/mL
* CCc1nc(-c2nnn(C)c2NC(=O)O[C@H](C)C(F)(F)CC)ccc1C#CC1(CC(=O)O)CC(OC)C1 (stereo partly shown) [compound 462] | 5000 to 10000 ng·h/mL
* Cc1nc(-c2nnn(C)c2NC(=O)O[C@H](C)CC(C)(F)F)ccc1C#C[C@@H]1CC[C@H]1C(=O)O (mixture of isomers) [compound 213] | 5000 to 10000 ng·h/mL
* Cc1nc(-c2nnn(C)c2NC(=O)O[C@H](C)CC(C)(F)F)ccc1C#CC1(CC(=O)O)CCC1 [compound 324] | 3000 to 5000 ng·h/mL
* Cc1nc(-c2nnn(C)c2NC(=O)O[C@H](C)CC(C)(C)F)ccc1C#C[C@@H]1CCC[C@H]1C(=O)O (mixture of isomers) [244-B] | 5000 to 10000 ng·h/mL
* Cc1nc(-c2nnn(C)c2CNC(=O)OCCC(C)C)ccc1C#CC1(CC(=O)O)CC1 [compound 253] | 1200 to 3000 ng·h/mL
* CCC(F)(F)[C@@H](C)OC(=O)Nc1c(-c2ccc(C#C[C@@H]3CCC[C@H]3C(=O)O)c(C)n2)nnn1C (mixture of isomers) [219-B] | 5000 to 10000 ng·h/mL
* Cc1nc(-c2nnn(C)c2NC(=O)OC(C)CCC(F)F)ccc1C#CC1(CC(=O)O)CC1 (stereo not shown) [compound 283] | 5000 to 10000 ng·h/mL
* C[C@H](C1CC1)N(C)C(=O)OCc1c(-c2ccc(C#CC3(CC(=O)O)CC3)cn2)nnn1C [compound 002] | 1200 to 3000 ng·h/mL
* Cc1nc(-c2nnn(C)c2COC(=O)N(C)CCC(C)(F)F)ccc1C#C[C@@H]1CCC[C@H]1C(=O)O (racemic) [compound 282] | 1200 to 3000 ng·h/mL
